Before we begin, note that these pKi values for 5-hydroxytryptamine receptor 1A (Homo sapiens, UniProt P08908) originate from several publications.
Biological target: 5-hydroxytryptamine receptor 1A (Homo sapiens, UniProt P08908)
Sequence (P08908 whole entry): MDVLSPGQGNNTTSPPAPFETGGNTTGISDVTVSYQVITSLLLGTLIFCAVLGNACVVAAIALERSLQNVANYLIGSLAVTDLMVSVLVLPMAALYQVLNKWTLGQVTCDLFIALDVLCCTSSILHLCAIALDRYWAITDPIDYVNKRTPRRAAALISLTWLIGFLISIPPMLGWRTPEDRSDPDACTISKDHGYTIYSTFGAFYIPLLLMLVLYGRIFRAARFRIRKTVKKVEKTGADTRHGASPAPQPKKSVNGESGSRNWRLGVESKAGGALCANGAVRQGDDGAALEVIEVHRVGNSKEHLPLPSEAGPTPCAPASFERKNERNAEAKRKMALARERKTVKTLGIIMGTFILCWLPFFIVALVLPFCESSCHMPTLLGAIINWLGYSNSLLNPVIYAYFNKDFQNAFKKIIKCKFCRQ
pKi: −log10 of the molar value.
MEASURE_NAME: pKi

See these solved cases before continuing.
| COMPOUND | pKi |
| --- | --- |
| CC1(c2ccc(F)cc2)NC(=O)N(CC(O)CN2CCN(c3ccccc3Cl)CC2)C1=O (stereo not given) | 6.40 |
| COc1cc2c(cc1OC)[C@@H]1Cc3ccc(O)c(OC)c3CN1CC2 | 6.83 |

A = COc1ccccc1N1CCN(CCC(O)c2ccsc2)CC1 (stereo not given)
B = COc1ccc2cc([C@@H]3CCN(C[C@H](O)COc4cccc5[nH]c(C)cc45)[C@@H](C)C3)sc2c1
C = Fc1cccc(Cl)c1Oc1cccc(F)c1OC1CCNCC1
D = CC(=O)c1c(C)cc2oc(=O)cc(C)c2c1OCCCN1CCN(c2ccc([N+](=O)[O-])cc2)CC1
// query Put these in order: smallest pKi first, largest last. Give the labels in the order requested.
// result D, A, B, C

a = Cn1c(=O)c2c(nc3n2CCCC(=O)N3CCCN2CCN(c3cccc(Cl)c3)CC2)n(C)c1=O
b = COc1cccc(OC)c1OCCNCCOc1ccccc1OCc1ccc([N+](=O)[O-])cc1
// query Compare pKi: is it lower for a or for b ? Let me know the label of the one you choose.
// result a

I = Fc1cccc(Oc2cccc(Cl)c2Cl)c1OC1CNC1
II = CSc1ccccc1N1CCN(CCCCCC(=O)NCc2ccc(C#N)cc2)CC1
// query When their pKi values are compared, which is larger, I or II ? Lab log: write the label of the selected item as the result.
// result I
(I: 7.80, II: 7.03)
